Test: chemical genetic growth profiling, strain panel (AID 1159580);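 further: tested at 20 µM; growth read once vehicle control cultures reached saturation at 30 °C; 1 = growth at the plate median or of vehicle wells; lower values mean less growth of the strain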
Details: S. cerevisiae deletion strains, growth OD, locus YLR113W, strain HOG1, hits give low values
Among all 5,500 compounds or so, about 2,000 (36%) were called active. About 18% were inconclusive and are not listed. The list shows a part of the results.
Lab note: anything with normalized growth below 0.9 is marked yes (1); values at 0.9 or higher are marked no (0).

compound="CO[C@H]1/C=C/O[C@@]2(C)Oc3c(C)c(O)c4c(O)c(c(/C=N/N5CCN(C)CC5)c(O)c4c3C2=O)NC(=O)/C(C)=C\\C=C\\C(C)[C@H](O)[C@@H](C)[C@@H](O)[C@@H](C)[C@@H](OC(C)=O)[C@@H]1C (stereo partly drawn)" classlabel="no (0)"
compound="C=CC(C1=CC(=O)C(OC)=CC1=O)c1ccccc1 (stereo not drawn)" classlabel="yes (1)"
compound=O=C(NC(=O)c1c(F)cccc1F)Nc1ccc(Cl)cc1 classlabel="no (0)"

Query: Answer whether the compound CC(=O)O[C@@H]1CC2C(C)(C)C(=O)CC[C@]2(C)C2CC[C@]3(C)C(=CC(=O)O[C@H]3c3ccoc3)[C@@]21C (stereo partly drawn) has normalized growth strictly less than 0.9
Result: no (0)

Query: Answer whether the compound "NCCCC[C@H](N[C@@H](CCc1ccccc1)C(=O)O)C(=O)N1CCC[C@H]1C(=O)O" has normalized growth strictly less than 0.9
Result: no (0)

Query: Answer whether the compound "CCN(CC)CCNC(=O)c1cc(S(C)(=O)=O)ccc1OC" has normalized growth strictly less than 0.9
Result: no (0)

Query: Answer whether the compound "Oc1c(Cl)cc(Cl)c2cccnc12" has normalized growth strictly less than 0.9
Result: yes (1)

Query: Answer whether the compound CCCC1O[C@@H]2CC3C4CCC5=CC(=O)C=CC5(C)C4[C@@H](O)CC3(C)[C@]2(C(=O)CO)O1 (stereo partly drawn) has normalized growth strictly less than 0.9
Result: no (0)

Query: Answer whether the compound "O=C(Nc1ccc(C(F)(F)F)cc1)N1CCN(c2ccnc3cc(Cl)ccc23)CC1" has normalized growth strictly less than 0.9
Result: no (0)

Query: Answer whether the compound "COc1cc2c(c(OC)c1OC)-c1ccc(OC)c(=O)cc1[C@@H](NC(C)=O)CC2" has normalized growth strictly less than 0.9
Result: no (0)

###

Test: chemical genetic growth profiling, strain panel (AID 1159580);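 further: tested at 20 µM; growth read once vehicle control cultures reached saturation at 30 °C; 1 = growth at the plate median or of vehicle wells; lower values mean less growth of the strain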
Conditions: S. cerevisiae deletion strains, growth OD, locus YCL069W, strain vba3
The campaign covered roughly 5,500 compounds. About 2,000 (36%) were called active. About 18% were inconclusive and are not listed. Rule as the data show it: active = normalized growth mostly below about 0.91 (no sharp cut-off); inconclusive = no clear call, values can overlap the other calls; inactive = mostly above about 0.92. This is one part of the list.
Lab note: assign the record to one of Yes for active, No for inactive

compound=CC(=O)Oc1ccc(Cl)c2cccnc12 classlabel=Yes

Query: Hey, what did the test say about "Nc1ccc(S(=O)(=O)Nc2ccc(Cl)nn2)cc1" ?
Result: No

Query: Hey, what did the test say about "COc1cccc(/C=C/C(=O)O)c1C(C)C" ?
Result: No

Query: Hey, what did the test say about "CC(=O)/C(=C\c1ccccc1)CC(=O)O" ?
Result: No

Query: Hey, what did the test say about "O=C(O)/C=C/C=C/c1ccccc1" ?
Result: Yes

Query: Hey, what did the test say about CC(=O)O[C@@H]1C[C@@]2(C)[C@H](c3ccoc3)C[C@H]3O[C@]32[C@]2(C)C(=O)C(O)=C3C(C)(C)C(=O)C=C[C@]3(C)C12 (stereo not given in full) ?
Result: No
